pEC50 for assorted compounds
# EXPERIMENTAL TARGET: human CB1 receptors (Homo sapiens (Human))
# Sequence (P21554 whole entry): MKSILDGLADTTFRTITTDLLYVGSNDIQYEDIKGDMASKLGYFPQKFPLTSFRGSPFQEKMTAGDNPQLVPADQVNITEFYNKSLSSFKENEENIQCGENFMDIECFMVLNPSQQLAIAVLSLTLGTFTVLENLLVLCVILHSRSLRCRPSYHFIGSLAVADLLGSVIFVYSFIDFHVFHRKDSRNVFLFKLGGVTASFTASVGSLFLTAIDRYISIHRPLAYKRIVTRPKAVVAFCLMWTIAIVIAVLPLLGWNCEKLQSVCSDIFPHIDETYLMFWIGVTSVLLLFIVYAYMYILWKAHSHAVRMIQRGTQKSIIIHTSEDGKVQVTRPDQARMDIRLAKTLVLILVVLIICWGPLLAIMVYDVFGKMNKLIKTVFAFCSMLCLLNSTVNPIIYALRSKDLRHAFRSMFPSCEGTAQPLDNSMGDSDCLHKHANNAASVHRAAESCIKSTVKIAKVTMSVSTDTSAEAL
# EXPERIMENT: functional cAMP assay, CHO cells expressing human CB1
# Type: cell-based
# MEASUREMENT CONTEXT: functional cAMP assay, CHO cells expressing human CB1; read-out: Human CB1 EC50
pEC50: −log10 of the molar value.

Report pEC50 for CC(CF)Oc1cc(C(=O)NC(C)(CC(N)=O)C2CC2)ncc1C1CC1 (stereo not drawn) [Example 294]
< 5.00

###

log10(EC50) for assorted compounds
# EXPERIMENTAL TARGET: human CB2 receptors (Homo sapiens (Human), UniProt P34972)
# Sequence (P34972 whole entry): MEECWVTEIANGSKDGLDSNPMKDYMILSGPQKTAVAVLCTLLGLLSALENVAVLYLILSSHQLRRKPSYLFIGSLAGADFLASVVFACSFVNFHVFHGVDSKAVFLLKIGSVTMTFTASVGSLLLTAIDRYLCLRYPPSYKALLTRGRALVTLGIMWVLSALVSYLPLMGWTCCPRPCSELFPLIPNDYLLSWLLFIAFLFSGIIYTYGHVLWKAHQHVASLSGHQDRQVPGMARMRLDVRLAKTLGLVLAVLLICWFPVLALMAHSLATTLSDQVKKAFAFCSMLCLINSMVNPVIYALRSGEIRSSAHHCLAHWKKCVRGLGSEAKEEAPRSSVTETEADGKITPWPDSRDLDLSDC
# EXPERIMENT: functional cAMP assay, CHO cells expressing human CB2
# Assay type: cell-based
# MEASUREMENT CONTEXT: Human CB2 EC50 (uM)
A value of 2 here means EC50 of 100 in µM, since values are log10.

Examples with answers:
[
  {
    "COMPOUND": "Cc1nnc(C(NC(=O)c2cc(OCC(F)(F)F)c(C3CC3)cn2)C(C)(C)C)o1 (single isomer, unassigned) [Example 179]",
    "EXPERIMENTAL TARGET": "human CB2 receptors (Homo sapiens (Human), UniProt P34972)",
    "REPORTED RESULT": -1.45
  },
  {
    "COMPOUND": "CC(C)(C)C(NC(=O)c1cc(OCC2CC2)c(N2CC(F)(F)C2)cn1)C(N)=O (single isomer, unassigned) [Example 261]",
    "EXPERIMENTAL TARGET": "human CB2 receptors (Homo sapiens (Human), UniProt P34972)",
    "REPORTED RESULT": -1.68
  },
  {
    "COMPOUND": "CC(CC(N)=O)(NC(=O)c1cc(OCC(F)(F)F)c(C2CC2)cn1)C1CC1 (single isomer, unassigned) [Example 244]",
    "EXPERIMENTAL TARGET": "human CB2 receptors (Homo sapiens (Human), UniProt P34972)",
    "REPORTED RESULT": -1.55
  },
  {
    "COMPOUND": "CC(C)(C)C(NC(=O)c1cc(OCC(F)(F)F)c(N2CC(F)(F)C2)cn1)C(N)=O (single isomer, unassigned) [Example 263]",
    "EXPERIMENTAL TARGET": "human CB2 receptors (Homo sapiens (Human), UniProt P34972)",
    "REPORTED RESULT": -1.47
  }
]

Report log10(EC50) for Cc1nc([C@](C)(NC(=O)c2cc(OCC(F)(F)F)c(Cl)cn2)C2CC2)no1 (single isomer, unassigned; enantiomer a)
-1.88

Report log10(EC50) for CC(C)(C)C(NC(=O)c1cc(OCC(F)(F)F)c(N2CC(F)(F)C2)cn1)C(N)=O (single isomer, unassigned) [Example 262]
-0.58

Report log10(EC50) for CC(CC(N)=O)(NC(=O)c1cc(OCC(F)(F)F)c(C2(F)CCC2)cn1)C1CC1 (single isomer, unassigned) [Example 309]
-2.70

Report log10(EC50) for Cc1nnc(C(C)(CC2CC2)NC(=O)c2cc(OCC(F)(F)F)c(C3CC3)cn2)o1 (single isomer, unassigned) [Example 184]
-1.07

Report log10(EC50) for Cn1nnc(C(NC(=O)c2cc(OCC(F)(F)F)c(C3CC3)cn2)C(C)(C)C)n1 (single isomer, unassigned) [Example 209]
-2.32

Report log10(EC50) for Cc1nc([C@](C)(CS(C)(=O)=O)NC(=O)c2cc(OCC(F)(F)F)c(C3CC3)cn2)no1 (single isomer, unassigned)
-0.98

Report log10(EC50) for Cc1nc(C(C)(CS(C)(=O)=O)NC(=O)c2cc(OCCF)c(C3CC3)cn2)no1 (single isomer, unassigned) [Example 280]
-1.10

Report log10(EC50) for CC(C)(C)C(NC(=O)c1cc(OCC(F)(F)F)c(C2CC2)cn1)c1noc(N)n1 (single isomer, unassigned) [Example 226]
-2.19
